Test system: P-gp (human MDR1)
procedure_summary: Efflux ratio of permeability from basolateral to apical side over apical to basolateral side in MDCK-MDR1 cells harboring human P-gp at 5 uM
Assay type: ADME, cell-based, Canis lupus familiaris
test_context: dog
quantity_measured: efflux ratio at 5 µM

Worked cases, efflux ratio at 5 µM given:
given_smiles	recorded_number
CCc1cc(-c2n[nH]c3ccnc(NC4CCOCC4)c23)nn1C	10
CC(C)(O)Cn1cc(-c2n[nH]c3ccnc(OC4CCOCC4)c23)cn1	80

1: CC(C)c1nc(-c2n[nH]c3ccnc(NC4CCOCC4)c23)n[nH]1
2: CCc1cc(-c2n[nH]c3ccnc(NC(C)C)c23)nn1C
Looking at recorded values for efflux ratio at 5 µM, does 1 or 2 come in lower? Field: selected label. Fill in the label of the entry you choose.
2

P: CC(C)n1cc(-c2n[nH]c3ccnc(NC4CCOCC4)c23)nn1
Q: c1cc(-c2n[nH]c3ccnc(OC4CCOCC4)c23)cc(N2CCOCC2)n1
R: FC(F)(F)c1cc(-c2n[nH]c3ccnc(NC4CCOCC4)c23)ncn1
S: CCc1cc(-c2n[nH]c3ccnc(NC4CCOCC4)c23)n(C)n1
Reorder: efflux ratio at 5 µM, max to min. Please write the labels in the order that was asked for.
P, S, Q, R

P: c1ccc(-c2n[nH]c3ccnc(NC4CCOCC4)c23)nc1
Q: c1cc(-c2n[nH]c3ccnc(NC4CCOCC4)c23)cc(N2CCOCC2)n1
Field: lower efflux ratio at 5 µM | Options: P / Q State your choice using its label.
Q
(Q: 1.5, P: 3.6)

Where do the numbers come from? From ChEMBL document CHEMBL4330074.
